system: PC-3; experiment: Antiproliferative activity against human PC3 cells after 48 hrs by sulforhodamine B assay; format: functional, cell-based; conditions: PC-3, 48 h
pIC50: −log10 of the molar value.
Label yes for high-side pIC50 (at or above 5) and no for low-side pIC50 (below it).

[[record]]
smilesstructure = "C=CCc1cc(O)c(O)c(-c2cc(CC=C)cc(O)c2O)c1"
label = "no"

[[record]]
smilesstructure = "O=c1[nH]cc(F)c(=O)[nH]1"
label = "yes"

[[record]]
smilesstructure = "C=CCc1cc(O)c(O)c(-c2cc(CC=C)cc(OC)c2O)c1"
label = "no"

[[record]]
smilesstructure = "CCCc1cc(Br)c(O)c(-c2cc(CCC)cc(Br)c2O)c1"
label = "no"

[[record]]
smilesstructure = "CCCc1ccc(O)c(-c2cc(CCC)cc(Cl)c2O)c1"
label = "no"

[[record]]
smilesstructure = "CCCc1cc(I)c(O)c(-c2cc(CCC)cc(I)c2O)c1"
label = "yes"

[[record]]
smilesstructure = "CCCCc1ccc(O)c(-c2cc(CCCC)cc(I)c2O)c1"
label = "no"

[[record]]
smilesstructure = "CCCCc1cc(I)c(O)c(-c2cc(CCCC)cc(I)c2O)c1"
label = "yes"

[[record]]
smilesstructure = "CCCCc1cc(Br)c(O)c(-c2cc(CCCC)cc(Br)c2O)c1"
label = "no"

[[record]]
smilesstructure = "CCCc1ccc(O)c(-c2cc(CCC)cc(Br)c2O)c1"
label = "no"

[[record]]
smilesstructure = "CCCc1cc(Cl)c(O)c(-c2cc(CCC)cc(Cl)c2O)c1"
label = "no"

[[record]]
smilesstructure = "CCCCc1ccc(O)c(-c2cc(CCCC)cc(Cl)c2O)c1"
label = "no"

[[record]]
smilesstructure = "C=CCc1cc(OC)c(O)c(-c2cc(CC=C)cc(OC)c2O)c1"
label = "no"

[[record]]
smilesstructure = "CCCc1ccc(O)c(-c2cc(CCC)cc(I)c2O)c1"
label = "no"

[[record]]
smilesstructure = "CCCCc1cc(Cl)c(O)c(-c2cc(CCCC)cc(Cl)c2O)c1"
label = "no"

[[record]]
smilesstructure = "CCCCc1ccc(O)c(-c2cc(CCCC)cc(Br)c2O)c1"
label = "no"

[[record]]
smilesstructure = "C=CCc1ccc(O)c(-c2cc(CC=C)ccc2O)c1"
label = "no"

